target: Adenosine receptor A1 (Homo sapiens); assay: Allosteric enhancement of human adenosine A1 receptor expressed in CHO cells assessed as increase of [3H]CCPA Bmax at 10 uM after 90 mins; type: cell-based
Below, each entry is listed with its recorded fold change (FC).
valueType: fold change (FC)

1) CC(C)N(Cc1c(-c2ccccc2)sc(N)c1C(=O)c1ccc(Cl)cc1)C(C)C: 1.2
2) Cc1cccc2c1OC1(CCN(Cc3csc(N)c3C(=O)c3ccc(Cl)cc3)CC1)O2: 5
3) Nc1scc(CN2CCc3[nH]c4ccccc4c3C2)c1C(=O)c1ccc(Cl)cc1: 1
4) Nc1scc(CN2CCn3c(cc4cc(F)ccc43)C2)c1C(=O)c1ccc(Cl)cc1: 8.2
5) C=CCN(CC=C)Cc1c(-c2ccccc2)sc(N)c1C(=O)c1ccc(Cl)cc1: 4.2
6) CCCN(CCC)Cc1c(-c2ccccc2)sc(N)c1C(=O)c1ccc(Cl)cc1: 3.1
7) Cn1c2c(c3ccccc31)CN(Cc1csc(N)c1C(=O)c1ccc(Cl)cc1)CC2: 3.1
8) CC(C)(C)c1ccc2c(c1)OC1(CCN(Cc3csc(N)c3C(=O)c3ccc(Cl)cc3)CC1)O2: 6.3
9) Nc1sc(-c2ccccc2)c(CN(C2CCCCC2)C2CCCCC2)c1C(=O)c1ccc(Cl)cc1: 3.5
10) Nc1scc(CN2CCC3(CC2)Oc2cccc(F)c2O3)c1C(=O)c1ccc(Cl)cc1: 6.5
11) CN(Cc1csc(N)c1C(=O)c1ccc(Cl)cc1)c1ccc(F)cc1: 3.2
